measurement_protocol: Toxicity liver stage against HepG2, at 10uM
Format: cell-based
Parameters: test concentration 10 uM, cell line HepG2-A16-CD81EGFP
assay_conditions: human, HepG2-A16-CD81EGFP cells; read-out: INHIBITION
experimental_endpoint: cytotoxicity at 10 µM

>  <molecule>
CC(=O)Nc1nc2c(s1)C1(CCCC1)Nc1ccccc1S2

>  <reported_value>
-9.99%

$$$$
>  <molecule>
O=C(NCCN1CCCC1)Nc1cc(C(=O)N2CCOCC2)ccc1Cl

>  <reported_value>
-44.2%

$$$$
>  <molecule>
CCc1nc(C2CCCN2Cc2nccn2CC(F)(F)F)no1 (centres undefined)

>  <reported_value>
-17.2%

$$$$
>  <molecule>
Cn1cc(C(O)CNC(=O)c2sccc2OC(F)F)cn1 (centres undefined)

>  <reported_value>
0.606%

$$$$
>  <molecule>
COCCNC(=O)NCc1cc(-c2ccncc2)n(C2CCCC2)n1

>  <reported_value>
-8.71%

$$$$
>  <molecule>
CSc1ccc(NCC(=O)Nc2c(C)nn(C)c2C)cc1F

>  <reported_value>
10.7%

$$$$
>  <molecule>
Cc1ccc2c(c1)C(NC(=O)N(C)C)CC21CCN(C)CC1 (centres undefined)

>  <reported_value>
10.4%

$$$$
>  <molecule>
Cc1ccc2c(c1)CN(C(=O)c1cnc(C)cn1)C(CN(C)C)CO2 (centres undefined)

>  <reported_value>
-22.3%

$$$$
>  <molecule>
Cc1ccc(N2CCC3(CC2)COCCN(c2nccs2)C3)nn1

>  <reported_value>
-107%

$$$$
>  <molecule>
Cc1cccc(CN2CCC[C@@H]3CN(C(=O)c4ccco4)C[C@@H]32)n1

>  <reported_value>
-3.49%

$$$$
>  <molecule>
Cn1ccc2c(cnc3nc(-c4ccncc4)nn32)c1=O

>  <reported_value>
-4.17%

$$$$
>  <molecule>
CCNc1ccnc(NCC2(N(C)C)CCOCC2)n1

>  <reported_value>
-0.686%

$$$$
>  <molecule>
O=C(NC(c1ccc(Cl)cc1)c1cccnc1)C1CC1 (centres undefined)

>  <reported_value>
-3.94%

$$$$
>  <molecule>
Cc1ncnc2c1CCN(C(=O)c1cccn1C)CC2

>  <reported_value>
-75.1%

$$$$
>  <molecule>
CN(CC(=O)N1CCc2[nH]c3ccc(F)cc3c2C1)CC1OCCO1

>  <reported_value>
6.19%

$$$$
>  <molecule>
CCc1nc(C2CCCN2c2ncc(C(F)(F)F)cc2Cl)no1 (centres undefined)

>  <reported_value>
5.64%

$$$$
>  <molecule>
COc1cccc(-c2noc(C3CCN(Cc4ccccc4C)C3)n2)c1 (centres undefined)

>  <reported_value>
-6.88%

$$$$
>  <molecule>
Cc1cc(C)c(S(=O)(=O)Nc2cccc3c2OCCO3)cc1C(=O)O

>  <reported_value>
5.87%

$$$$
>  <molecule>
CCN1C(=O)C[C@@H]2[C@@H]1CCN2S(=O)(=O)c1cccc(C)c1

>  <reported_value>
1.29%

$$$$

----------
measurement_protocol: Toxicity liver stage against HepG2, at 10uM
Type: cell-based
Set-up: test concentration 10 uM, cell line HepG2-A16-CD81EGFP
assay_conditions: human, HepG2-A16-CD81EGFP cells; read-out: INHIBITION
Each record here notes measured cytotoxicity at 10 µM.
experimental_endpoint: cytotoxicity at 10 µM (%)

>  <compound>
Cc1nn(C)c2nc(NC(C)c3n[nH]c(=O)[nH]3)sc12 (stereo not drawn)

>  <experimental_endpoint>
cytotoxicity at 10 µM

>  <reported_value>
4.91

$$$$
>  <compound>
CCCC1c2cccn2CCN1S(=O)(=O)N1CCOCC1 (stereo not drawn)

>  <experimental_endpoint>
cytotoxicity at 10 µM

>  <reported_value>
1.26

$$$$
>  <compound>
NC(=O)COc1ccc(C(=O)N2CCCC(n3ccnc3)C2)cc1 (stereo not drawn)

>  <experimental_endpoint>
cytotoxicity at 10 µM

>  <reported_value>
-13

$$$$
>  <compound>
CC(CNC(=O)NCc1ccco1)N1CCc2sccc2C1 (stereo not drawn)

>  <experimental_endpoint>
cytotoxicity at 10 µM

>  <reported_value>
-11.5

$$$$
>  <compound>
Cc1cc(C[C@@H]2COC[C@H]2NCc2ccc(Cl)c(Cl)c2)on1

>  <experimental_endpoint>
cytotoxicity at 10 µM

>  <reported_value>
-5.44

$$$$
>  <compound>
Cn1c(C(F)(F)F)nn(CCNC(=O)c2cnc3ccccc3n2)c1=O

>  <experimental_endpoint>
cytotoxicity at 10 µM

>  <reported_value>
-20

$$$$
>  <compound>
CC(c1cccnc1)N(C)Cc1cc2cc3c(cc2[nH]c1=O)OCO3 (stereo not drawn)

>  <experimental_endpoint>
cytotoxicity at 10 µM

>  <reported_value>
9.27

$$$$
>  <compound>
O=C1[C@@H]2CCN(CC3CCOCC3)C[C@@H]2OCCN1c1ccccc1

>  <experimental_endpoint>
cytotoxicity at 10 µM

>  <reported_value>
-5.21

$$$$

Source listed as ChEMBL document CHEMBL4513216.
